measurementDescription: Brain exposure (brain:plasma ratio, Table 24)
Format: in vivo, Rats
measurementConditions: rat, brain and plasma, iv; 1 mg/kg i.v.; 3 hr; read-out: RATIO: Brain:plasma (Direct)
resultType: Kp at 3 h
Respond using a number only.

Challenge: Identify measured Kp at 3 h associated with O=C(COc1ccc2[nH]c(=O)[nH]c2c1)N1CCN(c2ccc(Cl)c(Cl)c2)CC1 [drawing 807]
Response given: 0.1

---

measurementDescription: Brain exposure (brain:plasma ratio, Table 24)
Type: in vivo, Rats
measurementConditions: rat, brain and plasma, ip, 60 mg/kg; 60 MPK, i.p.; 4 hr; read-out: RATIO: Brain:plasma (Direct)
resultType: Kp at 4 h
Respond using a number only.

Challenge: Identify measured Kp at 4 h associated with CS(=O)(=O)Nc1ccc(OC[C@@H](O)CN2CCN(c3ccc(F)c(F)c3)CC2)cc1 [drawing 802]
Response given: 0.9
